Target: VIPR2 (Homo sapiens)
Test: Inhibition of VIP-induced cAMP elevation (% Activity cAMP)
Type: cell-based
Design: expressed in transfected cells; host or cells: HEK293 cells transfected with VIPR2 in pCDNA3.1 (as described)
Details: 0.5 μM, Batch 3
OUTCOME_MEASURE: inhibition at 0.5 µM (%)

[[record]]
compound = "CC(=O)Nc1ccc(S(=O)(=O)NC[C@H](C[C@@H](Cc2ccccc2)C(=O)N[C@H]2c3ccccc3C[C@H]2O)OC(C)=O)cc1 [Compound X089]"
reading_unit = "%"
measurement = -4.3


I: O=C(N[C@H]1c2ccccc2C[C@H]1O)[C@H](Cc1ccccc1)C[C@H](O)CNS(=O)(=O)c1ccc(C(=O)N2CCOCC2)cc1 [Compound X099]
II: O=C(NC1CCCC1)c1ccc(S(=O)(=O)NC[C@@H](O)C[C@@H](Cc2ccccc2)C(=O)N[C@H]2c3ccccc3C[C@H]2O)cc1 [Compound X097]
Between I and II , which one has the lower reported inhibition at 0.5 µM value? Your choice should be expressed through its label.
I

---

Molecular target: VIPR2 (Homo sapiens)
Sequence (P41587 24-438): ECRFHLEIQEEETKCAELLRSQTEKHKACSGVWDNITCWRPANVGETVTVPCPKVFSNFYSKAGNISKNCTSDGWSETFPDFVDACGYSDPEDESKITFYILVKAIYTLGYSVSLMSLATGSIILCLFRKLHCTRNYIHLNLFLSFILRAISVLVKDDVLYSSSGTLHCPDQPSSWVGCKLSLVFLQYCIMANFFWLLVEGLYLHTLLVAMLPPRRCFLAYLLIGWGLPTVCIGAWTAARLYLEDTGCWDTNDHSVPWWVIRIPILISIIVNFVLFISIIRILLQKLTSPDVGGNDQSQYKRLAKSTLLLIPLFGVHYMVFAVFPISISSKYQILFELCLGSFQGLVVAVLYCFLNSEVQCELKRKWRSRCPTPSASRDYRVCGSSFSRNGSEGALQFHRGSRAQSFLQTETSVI
Experiment: Inhibition of VIP-induced cAMP elevation (% Activity cAMP)
Format: cell-based
Design: expressed in transfected cells; host or cells: HEK293 cells transfected with VIPR2 in pCDNA3.1 (as described)
Details: 0.5 μM, Batch 2
OUTCOME_MEASURE: inhibition at 0.5 µM (%)

Sample records with inhibition at 0.5 µM:
[[record]]
compound = "C[C@H](CC(C)(C)C)NC(=O)[C@H](Cc1ccccc1)C[C@H](O)CNS(=O)(=O)c1ccc([N+](=O)[O-])cc1 [Compound B10A]"
target = "VIPR2 (Homo sapiens)"
measurement = -7.9

[[record]]
compound = "C[C@H](CC(C)(C)C)NC(=O)[C@@H](Cc1ccccc1)C[C@H](O)CNS(=O)(=O)c1ccc([N+](=O)[O-])cc1 [Compound B10B]"
target = "VIPR2 (Homo sapiens)"
measurement = 6.5

[[record]]
compound = "CCN(CC)C(=O)[C@@H](Cc1ccccc1)C[C@H](O)CNS(=O)(=O)c1ccc([N+](=O)[O-])cc1 [Compound B15B]"
target = "VIPR2 (Homo sapiens)"
measurement = 0.5

[[record]]
compound = "NC(=O)[C@H](Cc1ccccc1)C[C@H](O)CNS(=O)(=O)c1ccc([N+](=O)[O-])cc1 [Compound B12A]"
target = "VIPR2 (Homo sapiens)"
measurement = 6.7


A: O=C(NN1CCCCC1)[C@@H](Cc1ccccc1)C[C@H](O)CNS(=O)(=O)c1ccc([N+](=O)[O-])cc1 [Compound B6B]
B: O=C(NC1CCCc2ccccc21)[C@@H](Cc1ccccc1)C[C@H](O)CNS(=O)(=O)c1ccc([N+](=O)[O-])cc1 (stereo partly drawn) [Compound B13B]
Form field 'greater inhibition at 0.5 µM' accepts A or B ; which applies? Your choice should be expressed through its label.
A
(A: 9.2%, B: 5.1%)

---

Molecular target: VIPR2 (Homo sapiens, UniProt P41587)
Assay: Inhibition of VIP-induced cAMP elevation (% Activity cAMP)
Assay type: cell-based
Design: expressed in transfected cells; host or cells: HEK293 cells transfected with VIPR2 in pCDNA3.1 (as described)
Conditions: 1 μM, Batch 2
OUTCOME_MEASURE: inhibition at 1 µM (%)

Sample records with inhibition at 1 µM:
[[record]]
compound = "O=C(NC1CCCCCC1)[C@@H](Cc1ccccc1)C[C@H](O)CNS(=O)(=O)c1ccc([N+](=O)[O-])cc1"
outcome_measure = "inhibition at 1 µM"
measurement = 10.6

[[record]]
compound = "C[C@H](CC(C)(C)C)NC(=O)[C@@H](Cc1ccccc1)C[C@H](O)CNS(=O)(=O)c1ccc([N+](=O)[O-])cc1 [Compound B10B]"
outcome_measure = "inhibition at 1 µM"
measurement = 19.6

[[record]]
compound = "CCN(CC)C(=O)[C@@H](Cc1ccccc1)C[C@H](O)CNS(=O)(=O)c1ccc([N+](=O)[O-])cc1 [Compound B15B]"
outcome_measure = "inhibition at 1 µM"
measurement = -8.4

[[record]]
compound = "O=C(NC1CCCCCC1)[C@H](Cc1ccccc1)C[C@H](O)CNS(=O)(=O)c1ccc([N+](=O)[O-])cc1"
outcome_measure = "inhibition at 1 µM"
measurement = 5.6

[[record]]
compound = "C[C@H](CC(C)(C)C)NC(=O)[C@H](Cc1ccccc1)C[C@H](O)CNS(=O)(=O)c1ccc([N+](=O)[O-])cc1 [Compound B10A]"
outcome_measure = "inhibition at 1 µM"
measurement = 4.4


I: C#CCNC(=O)[C@H](Cc1ccccc1)C[C@H](O)CNS(=O)(=O)c1ccc([N+](=O)[O-])cc1 [Compound B21A]
II: O=C(NC1CCCC1)[C@@H](Cc1ccccc1)C[C@H](O)CNS(=O)(=O)c1ccc([N+](=O)[O-])cc1
Form field 'greater inhibition at 1 µM' accepts I or II ; which applies? Your choice should be expressed through its label.
I
(I: 7.8%, II: -2.5%)

I: O=C([C@H](Cc1ccccc1)C[C@H](O)CNS(=O)(=O)c1ccc([N+](=O)[O-])cc1)N1CCC(CO)CC1
II: O=C(NC1CCCC1)[C@H](Cc1ccccc1)C[C@H](O)CNS(=O)(=O)c1ccc([N+](=O)[O-])cc1
Form field 'greater inhibition at 1 µM' accepts I or II ; which applies? Your choice should be expressed through its label.
I
(I: 4.4%, II: -4.9%)

---

Molecular target: UniProt P41587
Assay: Inhibition of VIP-induced β-arrestin recruitment (% Activity Arrestin)
Assay type: cell-based
Set-up: expressed in transfected cells; host or cells: HEK293 cells transfected with VIPR2 in pCDNA3.1 (as described)
Details: 5 μM, Batch 2
OUTCOME_MEASURE: inhibition at 5 µM (%)

Sample records with inhibition at 5 µM:
[[record]]
compound = "O=C(NN1CCCCC1)[C@@H](Cc1ccccc1)C[C@H](O)CNS(=O)(=O)c1ccc([N+](=O)[O-])cc1"
outcome_measure = "inhibition at 5 µM"
reading_unit = "%"
measurement = 4.7

[[record]]
compound = "CCN(CC)C(=O)[C@H](Cc1ccccc1)C[C@H](O)CNS(=O)(=O)c1ccc([N+](=O)[O-])cc1 [Compound B15A]"
outcome_measure = "inhibition at 5 µM"
reading_unit = "%"
measurement = 5.7

[[record]]
compound = "C[C@H](CC(C)(C)C)NC(=O)[C@H](Cc1ccccc1)C[C@H](O)CNS(=O)(=O)c1ccc([N+](=O)[O-])cc1 [Compound B10A]"
outcome_measure = "inhibition at 5 µM"
reading_unit = "%"
measurement = -10.3

[[record]]
compound = "CCNC(=O)[C@H](Cc1ccccc1)C[C@H](O)CNS(=O)(=O)c1ccc([N+](=O)[O-])cc1 [Compound B16A]"
outcome_measure = "inhibition at 5 µM"
reading_unit = "%"
measurement = -12.3

[[record]]
compound = "O=C(NCc1ccc(F)cc1F)[C@@H](Cc1ccccc1)C[C@H](O)CNS(=O)(=O)c1ccc([N+](=O)[O-])cc1 [Compound B14B]"
outcome_measure = "inhibition at 5 µM"
reading_unit = "%"
measurement = 24


I: CCCCNC(=O)[C@@H](Cc1ccccc1)C[C@H](O)CNS(=O)(=O)c1ccc([N+](=O)[O-])cc1
II: CCNC(=O)[C@@H](Cc1ccccc1)C[C@H](O)CNS(=O)(=O)c1ccc([N+](=O)[O-])cc1 [Compound B16B]
Form field 'greater inhibition at 5 µM' accepts I or II ; which applies? Your choice should be expressed through its label.
I

---

Molecular target: VIPR2 (Homo sapiens, UniProt P41587)
Assay: Inhibition of VIP-induced cAMP elevation (% Activity cAMP)
Type: cell-based
Design: expressed in transfected cells; host or cells: HEK293 cells transfected with VIPR2 in pCDNA3.1 (as described)
Settings: 5 μM, Batch 2
OUTCOME_MEASURE: inhibition at 5 µM (%)

[[record]]
molecule = "O=C(NC1CCCCCC1)[C@@H](Cc1ccccc1)C[C@H](O)CNS(=O)(=O)c1ccc([N+](=O)[O-])cc1"
outcome_measure = "inhibition at 5 µM"
measurement = 14.3

[[record]]
molecule = "O=C(NCc1ccccc1)[C@H](Cc1ccccc1)C[C@H](O)CNS(=O)(=O)c1ccc([N+](=O)[O-])cc1"
outcome_measure = "inhibition at 5 µM"
measurement = -2.9


A: O=C(NCc1ccc(F)cc1F)[C@H](Cc1ccccc1)C[C@H](O)CNS(=O)(=O)c1ccc([N+](=O)[O-])cc1 [Compound B14A]
B: CCN(CC)C(=O)[C@@H](Cc1ccccc1)C[C@H](O)CNS(=O)(=O)c1ccc([N+](=O)[O-])cc1 [Compound B15B]
Between A and B , which one has the lower reported inhibition at 5 µM value? Your choice should be expressed through its label.
B
(B: -10.5%, A: 23.6%)
